# System: mPTP
# Experiment Summary: mPTP activity (Ca2+ retention) assay in isolated rat liver mitochondria
# Format: biochemical
# Conditions: isolated rat liver mitochondria; average value from multiple experiments (n ≥ 2)
Property: mPTP Rat liver pIC50

• CCO[C@H]1Cc2ccccc2[C@@H]1NC(=O)/C=C/c1ccc2c(C)n[nH]c2c1 [Example 69] = 7.7
• Cc1c(F)cccc1NC(=O)/C=C/c1cc(F)c2c(c1)NC(=O)C2 [Example 18] = 6.0
• Cc1c(F)cccc1NC(=O)/C=C/c1ccc2c(c1)[nH]c(=O)n2C [Example 7] = 6.8
• Cc1n[nH]c2cc(/C=C/C(=O)NC3c4ccccc4CCC3C)ccc12 (stereo not drawn) [Example 53] = 6.7
• COCc1c(F)cccc1NC(=O)/C=C/c1ccc2c(C)n[nH]c2c1 [Example 50] = 7.3
• COc1cc(C)c(NC(=O)/C=C/c2ccc3c(C)n[nH]c3c2)c(C)n1 [Example 91] = 6.2
• CC1Cc2ccccc2C1NC(=O)/C=C/c1ccc2c(C#N)n[nH]c2c1 (stereo not drawn) [Example 44] = 7.1
• Cc1n[nH]c2cc(/C=C/C(=O)N[C@@H]3CCCC[C@H]3C)ccc12 [Example 43] = 6.3
• COc1cc(C)c(NC(=O)/C=C/c2cc3[nH]nc(Cl)c3cc2F)c(C)n1 [Example 96] = 7.6
• Cc1ncc(F)c(C)c1NC(=O)/C=C/c1cc2[nH]nc(C)c2cc1F [Example 107] = 8.1
• CO[C@H]1Cc2ccccc2[C@@H]1NC(=O)/C=C/c1ccc2c(C3CC3)n[nH]c2c1 [Example 70] = 7.5
• Cc1ncc(F)c(C)c1NC(=O)/C=C/c1ccc2c(F)n[nH]c2c1 [Example 108] = 7.8

###

# System: mPTP
# Experiment Summary: mPTP activity (Ca2+ retention) assay in isolated rat liver mitochondria
# Type: biochemical
# Conditions: isolated rat liver mitochondria; average value from multiple experiments (n ≥ 2)
Property: mPTP Rat liver pIC50

• Cc1n[nH]c2cc(/C=C/C(=O)N[C@@H]3CCc4ccccc43)ccc12 = 7.1
• Cc1cc(F)c(F)c(C)c1NC(=O)/C=C/c1ccc2c(c1)NC(=O)C2 = 7.2
• Cc1c(Cl)cccc1NC(=O)/C=C/c1ccc2oc(=O)[nH]c2c1 = 7.4
• Cc1cccc(C(C)C)c1NC(=O)/C=C/c1ccc2oc(=O)[nH]c2c1 = 6.5
• Cc1ccc(F)c(C)c1NC(=O)/C=C/c1ccc2c(c1)NC(=O)C2 = 6.8
• Cc1n[nH]c2cc(/C=C/C(=O)NC3CCc4cc(F)ccc43)ccc12 (stereo not shown) = 6.6
• Cc1c(F)cccc1NC(=O)/C=C/c1ccc2c(c1)NC(=O)C2C (stereo not shown) = 5.9

###

# Tested on: mPTP
# Experiment Summary: mPTP activity (Ca2+ retention) assay in isolated rat liver mitochondria
# Format: biochemical
# Conditions: isolated rat liver mitochondria; average value from multiple experiments (n ≥ 2)
Property: mPTP Rat liver pIC50

• CC(C)c1ccccc1NC(=O)/C=C/c1ccc2oc(=O)[nH]c2c1 [Example 13] = 6.0
• Cc1ncccc1NC(=O)/C=C/c1ccc2c(C)n[nH]c2c1 [Example 115] = 6.2
• Cc1ncc(F)c(C)c1NC(=O)/C=C/c1ccc2c(C)n[nH]c2c1 [Example 113] = 7.7
• O=C(/C=C/c1ccc2c(c1)NC(=O)C2)NC1CCc2ccccc21 (centres unmarked) [Example 59] = 5.5
• Cc1ccnc(C)c1NC(=O)/C=C/c1ccc2c(C)n[nH]c2c1 [Example 116] = 6.5
• Cc1n[nH]c2cc(/C=C/C(=O)NC3c4ccccc4CC3C)ccc12 (centres unmarked) [Example 38] = 7.2
• CC1Cc2ccccc2C1NC(=O)/C=C/c1ccc2oc(=O)[nH]c2c1 (centres unmarked) [Example 46] = 6.3
• Cc1cccc(C)c1NC(=O)/C=C/c1ccc2c(c1)NC(=O)C2 [Example 19] = 6.2
• Cc1c(F)cccc1NC(=O)/C=C/c1ccc2c(C#N)n[nH]c2c1 [Example 51] = 7.9
• Cc1ccc(NC(=O)/C=C/c2ccc3c(C)n[nH]c3c2)cc1F [Example 42] = 6.1
• CC(C)c1ccc(Cl)cc1NC(=O)/C=C/c1ccc2oc(=O)[nH]c2c1 [Example 15] = 6.9
